Reference source: patent US20250188176A1

Target: T1, Extracellular domain (ECD) of the canine IL-4 receptor alpha-V5 epitope-AviTag-His Tag (canine)
T1 construct: monomeric form isolated by size exclusion; also called canine IL-4RA-V5-Avi-His; canine IL-4RA
T1 chain: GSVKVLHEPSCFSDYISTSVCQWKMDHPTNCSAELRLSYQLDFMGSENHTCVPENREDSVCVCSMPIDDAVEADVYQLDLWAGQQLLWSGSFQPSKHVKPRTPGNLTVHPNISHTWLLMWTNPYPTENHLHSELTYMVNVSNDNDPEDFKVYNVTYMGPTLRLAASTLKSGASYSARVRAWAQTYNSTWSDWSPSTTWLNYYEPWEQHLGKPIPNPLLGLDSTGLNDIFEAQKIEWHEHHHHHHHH
Assay: SPR, Fab-SASA captured on BSA;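 also: biacore T200 SPR, Fab-SASA variants from E. coli conditioned medium captured on BSA-coated CM5 chip, canine IL-4RA injected 120 s then 420 s dissociation, 1:1 model fit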
# binarize koff: threshold 0.0007 s⁻¹ inclusive, high side condition met, low side condition not met

[
  {
    "binder": "TB640_005 Fab-SASA VH-T28N (Fab, V domains shown, not shown: SASA tag then His-tag) VH: EVQLVESGGDLVKPGGSLRLSCVASGFNFRDYAMTWVRQAPGKGLQWVSLISGSGGKTYYADAVKGRFTISRDNAKNTLYLQMNSLRAEDTAVYYCAVDRLTKTIRPQYYGLWVWGQGTLVTVSS VL: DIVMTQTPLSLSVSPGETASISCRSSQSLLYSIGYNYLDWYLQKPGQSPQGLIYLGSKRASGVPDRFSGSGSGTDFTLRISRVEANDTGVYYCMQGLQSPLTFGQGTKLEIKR",
    "category": "condition met"
  },
  {
    "binder": "TB640_005 Fab-SASA VL-Q27L (Fab, V domains shown, not shown: SASA tag then His-tag) VH: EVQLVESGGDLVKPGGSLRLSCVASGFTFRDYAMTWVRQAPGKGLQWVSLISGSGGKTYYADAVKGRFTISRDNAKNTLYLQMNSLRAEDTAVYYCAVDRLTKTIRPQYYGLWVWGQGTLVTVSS VL: DIVMTQTPLSLSVSPGETASISCRSSLSLLYSIGYNYLDWYLQKPGQSPQGLIYLGSKRASGVPDRFSGSGSGTDFTLRISRVEANDTGVYYCMQGLQSPLTFGQGTKLEIKR",
    "category": "condition met"
  },
  {
    "binder": "TB640_005 Fab-SASA VL-T102L (Fab, V domains shown, not shown: SASA tag then His-tag) VH: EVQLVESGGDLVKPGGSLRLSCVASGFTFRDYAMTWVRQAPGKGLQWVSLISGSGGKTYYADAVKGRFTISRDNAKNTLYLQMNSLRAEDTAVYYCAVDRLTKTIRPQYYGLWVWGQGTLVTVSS VL: DIVMTQTPLSLSVSPGETASISCRSSQSLLYSIGYNYLDWYLQKPGQSPQGLIYLGSKRASGVPDRFSGSGSGTDFTLRISRVEANDTGVYYCMQGLQSPLLFGQGTKLEIKR",
    "category": "condition not met"
  },
  {
    "binder": "TB640_005 Fab-SASA VL-I33V (Fab, V domains shown, not shown: SASA tag then His-tag) VH: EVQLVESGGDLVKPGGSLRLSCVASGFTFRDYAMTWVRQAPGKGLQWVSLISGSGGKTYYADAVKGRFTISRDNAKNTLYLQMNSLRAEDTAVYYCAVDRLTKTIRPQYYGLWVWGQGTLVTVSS VL: DIVMTQTPLSLSVSPGETASISCRSSQSLLYSVGYNYLDWYLQKPGQSPQGLIYLGSKRASGVPDRFSGSGSGTDFTLRISRVEANDTGVYYCMQGLQSPLTFGQGTKLEIKR",
    "category": "condition met"
  }
]
